Overview of recorded IC50 for various compounds
Tested on: L-02 normal liver cell
test_name: MTT assay, L-02 normal cells
Assay type: cell-based, human
measurement_parameters: Homo sapiens, 48 h

N#C/C(=C\c1cn(-c2ccccc2)nn1)c1ccc(OC(F)(F)F)cc1 [Compound 7a] | > 100 µM
N#C/C(=C\c1ccc(/C=C/C(=O)c2ccccc2)cc1)c1ccc(OC(F)(F)F)cc1 [Compound 8b] | > 100 µM
COc1ccc(C(=O)/C=C/c2ccc(/C=C(\C#N)c3ccc(OC(F)(F)F)cc3)cc2)cc1 [Compound 8a] | > 100 µM
COc1ccc(/C=C\c2cc(OC)c(OC)c(OC)c2)cc1O [CA-4, combretastatin A-4, reference compound] | 1.1 µM
COc1cc(-n2cc(/C=C(\C#N)c3ccc(OC(F)(F)F)cc3)nn2)cc(OC)c1OC [Compound 7c] | > 100 µM
N#C/C(=C\c1ccc(/C=C/C(=O)c2ccc(Br)cc2)cc1)c1ccc(OC(F)(F)F)cc1 [Compound 8d] | > 100 µM
Oc1ccc(/C=C/c2cc(O)cc(O)c2)cc1 [Resveratrol, resveratrol, reference compound] | 12.8 µM
N#C/C(=C\c1cn(Cc2ccccc2)c2ccccc12)c1ccc(OC(F)(F)F)cc1 [Compound 9] | > 100 µM

Here's the next entry for you.
Could you share what IC50 was measured for COc1cccc(-n2cc(/C=C(\C#N)c3ccc(OC(F)(F)F)cc3)nn2)c1 [Compound 7b] , tested on L-02 normal liver cell?
> 100 µM

###

Test system: HCT116 colectal cancer cell
test_name: MTT anti-proliferative assay, HCT116
Format: cell-based, human
measurement_parameters: MTT, 48 h; read-out: IC50 HCT-116
Overview of recorded pIC50 for various compounds
Formally, pIC50 is defined as -log10 of the concentration c, with c in mol/L.

Use these answered entries as a reference point.
COc1ccc(/C=C(\C#N)c2ccc(OC(F)(F)F)cc2)cc1 | 4.37
N#C/C(=C\c1ccc(Br)cc1)c1ccc(OC(F)(F)F)cc1 | 4.60
COc1ccc(/C=C(\C#N)c2ccccc2OC(F)(F)F)cc1 | 5.08
N#C/C(=C\c1ccc(F)cc1)c1ccc(OC(F)(F)F)cc1 | 4.63

Could you share what pIC50 was measured for COc1ccc(/C=C(\C#N)c2ccc(C(F)(F)F)cc2)cc1 , tested on HCT116 colectal cancer cell?
4.32

Could you share what pIC50 was measured for CC(C)c1ccc(/C=C(\C#N)c2ccc(OC(F)(F)F)cc2)cc1 , tested on HCT116 colectal cancer cell?
4.24

Could you share what pIC50 was measured for N#C/C(=C\c1ccc(Br)cc1)c1ccccc1OC(F)(F)F , tested on HCT116 colectal cancer cell?
4.76

###

System: AGS gastric cancer cell
test_name: MTT anti-proliferative assay, AGS
Format: cell-based, human
Overview of recorded SI (selectivity index), IC50 (L-02)/IC50 (AGS) for various compounds

Use these answered entries as a reference point.
N#C/C(=C\c1ccc(F)cc1)c1cccc(OC(F)(F)F)c1 | > 1.9
CCN(CC)c1ccc(/C=C(\C#N)c2cc(OC)c(OC)c(OC)c2)cc1 | > 13.1
Cc1ccc(/C(C#N)=C/c2ccc(N(C)C)cc2)cc1 | > 4.3
N#C/C(=C\c1cccs1)c1ccc(C(F)(F)F)cc1 | > 1.5
COc1ccc(/C=C(\C#N)c2ccccc2OC(F)(F)F)cc1 | > 4.7

Could you share what SI (selectivity index), IC50 (L-02)/IC50 (AGS) was measured for COc1cccc(/C=C(\C#N)c2ccc(C(F)(F)F)cc2)c1 , tested on AGS gastric cancer cell?
> 1.2

Could you share what SI (selectivity index), IC50 (L-02)/IC50 (AGS) was measured for N#C/C(=C\c1cccs1)c1ccc(OC(F)(F)F)cc1 , tested on AGS gastric cancer cell?
> 2.3

Could you share what SI (selectivity index), IC50 (L-02)/IC50 (AGS) was measured for N#C/C(=C\c1ccccc1Br)c1ccc(C(F)(F)F)cc1 , tested on AGS gastric cancer cell?
> 2.3

Could you share what SI (selectivity index), IC50 (L-02)/IC50 (AGS) was measured for Cc1ccc(/C=C(\C#N)c2cccc(OC(F)(F)F)c2)cc1 , tested on AGS gastric cancer cell?
> 11.9

Could you share what SI (selectivity index), IC50 (L-02)/IC50 (AGS) was measured for N#C/C(=C\c1ccc(Cl)cc1)c1ccc(OC(F)(F)F)cc1 , tested on AGS gastric cancer cell?
> 5.3

Could you share what SI (selectivity index), IC50 (L-02)/IC50 (AGS) was measured for CCN(CC)c1ccc(/C=C(\C#N)c2ccc(C)cc2)cc1 , tested on AGS gastric cancer cell?
> 4.1

Could you share what SI (selectivity index), IC50 (L-02)/IC50 (AGS) was measured for CN(C)c1ccc(/C=C(\C#N)c2ccc(OC(F)(F)F)cc2)cc1 , tested on AGS gastric cancer cell?
> 1.4
